# Tested on: Hep G2 cells
# ASSAY_PROCEDURE: CCK-8 anti-proliferative assay, Hep G2
# Assay type: cell-based, human
# ASSAY_CONDITIONS: Homo sapiens, HepG2; Table 8; co-incubated 48 h; read-out: Anti-proliferative activity (IC50 ± standard deviation) Hep G2
MEASURED_METRIC: IC50 (µM)

CPD_SMILES: COc1cc2ncnc(NCc3cccc(NC(=O)Nc4ccc(Cl)c(C(F)(F)F)c4)c3)c2cc1OCCCCCCN1CCN(CCN2CCOCC2)CC1
STUDY_TARGET: Hep G2 cells
MEASURED_METRIC: IC50
READOUT_UNIT: µM
VALUE: 5.59
//
CPD_SMILES: COc1cc2ncnc(NCc3cccc(NC(=O)Nc4ccc(C(C)C)cc4)c3)c2cc1OCCCCCCN1CCN(CCN2CCOCC2)CC1
STUDY_TARGET: Hep G2 cells
MEASURED_METRIC: IC50
READOUT_UNIT: µM
VALUE: 10.6
//
CPD_SMILES: CCc1ccccc1NC(=O)Nc1cccc(CNc2ncnc3cc(OC)c(OCCCCCCN4CCN(CCN5CCOCC5)CC4)cc23)c1
STUDY_TARGET: Hep G2 cells
MEASURED_METRIC: IC50
READOUT_UNIT: µM
VALUE: 12.7

* * *

# Tested on: 143B cells
# ASSAY_PROCEDURE: CCK-8 anti-proliferative assay, 143B
# Assay type: cell-based, human
# ASSAY_CONDITIONS: Homo sapiens, 143B; Table 7; co-incubated 48 h; read-out: Anti-proliferative activity (IC50 ± standard deviation) 143B
MEASURED_METRIC: IC50 (µM)

COMPOUND: COc1cc2ncnc(NCc3cccc(NC(=O)Nc4ccc(C(C)C)cc4)c3)c2cc1OCCCCCCN1CCN(CCN2CCOCC2)CC1 [Compound 8-1i]
VALUE: 9.31
--
COMPOUND: COc1cc2ncnc(NCc3cccc(NC(=O)Nc4ccccc4Cl)c3)c2cc1OCCCCCCN1CCN(CCN2CCOCC2)CC1 [Compound 8-1m]
VALUE: 5.62
--
COMPOUND: COc1cc2ncnc(NCc3cccc(NC(=O)Nc4ccc(F)c(C(F)(F)F)c4)c3)c2cc1OCCCCCCN1CCN(CCN2CCOCC2)CC1 [Compound 8-1q]
VALUE: 4.57
--
COMPOUND: COc1cc2ncnc(NCc3cccc(NC(=O)Nc4cccc(C)c4)c3)c2cc1OCCCCCCN1CCN(CCN2CCOCC2)CC1 [Compound 8-1c]
VALUE: 13

* * *

# Test system: Hep G2 cells
# ASSAY_PROCEDURE: CCK-8 anti-proliferative assay, Hep G2
# Type: cell-based, human
# ASSAY_CONDITIONS: Homo sapiens, HepG2; Table 8; co-incubated 48 h; read-out: Anti-proliferative activity (IC50 ± standard deviation) Hep G2
# Procedure: The obtained quinazolinyl-aryl urea derivatives were screened for compounds with optimal activity using the following method. […] Experimental Procedure for Anti-Proliferative Activity Evaluation: The CCK-8 assay was employed. […] The reaction was terminated, and OD (optical density) values at 450 nm were measured using a microplate reader. Inhibition rates were calculated as: (ODcontrol−ODtreatment)/ODcontrol×100%. […]
pIC50: −log10 of the molar value.
Reported pIC50 values follow for various compounds
MEASURED_METRIC: pIC50

CPD_SMILES: COc1cc2ncnc(NCc3cccc(NC(=O)Nc4ccc(Cl)c(Cl)c4)c3)c2cc1OCCCCCCN1CCN(CCN2CCOCC2)CC1
MEASURED_METRIC: pIC50
VALUE: 5.17
//
CPD_SMILES: COc1cc2ncnc(NCc3cccc(NC(=O)Nc4ccc(F)c(C(F)(F)F)c4)c3)c2cc1OCCCCCCN1CCN(CCN2CCOCC2)CC1
MEASURED_METRIC: pIC50
VALUE: 5.15
//
CPD_SMILES: COc1cc2ncnc(NCc3cccc(NC(=O)Nc4ccc(C)cc4)c3)c2cc1OCCCCCCN1CCN(CCN2CCOCC2)CC1
MEASURED_METRIC: pIC50
VALUE: 5.15

* * *

# Test system: 143B cells
# ASSAY_PROCEDURE: CCK-8 anti-proliferative assay, 143B
# Type: cell-based, human
# ASSAY_CONDITIONS: Homo sapiens, 143B; Table 11; co-incubated 48 h; read-out: Anti-proliferative activity (IC50 ± standard deviation) 143B
pIC50: −log10 of the molar value.
The entries below come with measured pIC50 values attached.

CPD_SMILES: COc1cc2ncnc(NCc3cccc(NC(=O)Nc4ccccc4)c3)c2cc1OCCCCCCN1CCC(CN2CCN(c3ccccn3)CC2)CC1
OPERATOR_SYMBOL: <
pIC50: 4.52
//
CPD_SMILES: COc1ccccc1NC(=O)Nc1cccc(CNc2ncnc3cc(OC)c(OCCCCCCN4CCC(CN5CCN(c6ccccn6)CC5)CC4)cc23)c1
OPERATOR_SYMBOL: =
pIC50: 5.22
//
CPD_SMILES: COc1cc2ncnc(NCc3cccc(NC(=O)Nc4cc(C(F)(F)F)cc(C(F)(F)F)c4)c3)c2cc1OCCCCCCN1CCC(CN2CCN(c3ccccn3)CC2)CC1
OPERATOR_SYMBOL: =
pIC50: 5.09
//
CPD_SMILES: COc1cc2ncnc(NCc3cccc(NC(=O)Nc4ccc(Cl)cc4Cl)c3)c2cc1OCCCCCCN1CCC(CN2CCN(c3ccccn3)CC2)CC1
OPERATOR_SYMBOL: =
pIC50: 5.05
//
CPD_SMILES: COc1cc2ncnc(NCc3cccc(NC(=O)Nc4ccc(C(C)C)cc4)c3)c2cc1OCCCCCCN1CCC(CN2CCN(c3ccccn3)CC2)CC1
OPERATOR_SYMBOL: =
pIC50: 5.20
//
CPD_SMILES: COc1cc2ncnc(NCc3cccc(NC(=O)Nc4cc(C)cc(C)c4)c3)c2cc1OCCCCCCN1CCC(CN2CCN(c3ccccn3)CC2)CC1
OPERATOR_SYMBOL: =
pIC50: 5.24
